Tested on: CCRF-CEM leukemia
protocol_notes: NCI-60 one-dose screen, 48 h
condition_notes: 10 µM
This is part of a sample that, as a whole, favours compounds with a hit. Of some 83,000 tested, about 20% had one in any assay. Active and inactive are the calls of the source. The calls were made as follows: active = growth percent below 10; inactive = the rest.
Outcomes: true (1) (active), false (0) (inactive)

>>> group("C=C(NC(=O)C(=C)NC(=O)c1csc(C2=NC3c4csc(n4)C4NC(=O)c5csc(n5)C(C(C)(O)C(C)O)NC(=O)C5CSC(=N5)C(=CC)NC(=O)C(C(C)O)NC(=O)c5csc(n5)C3(CC2)NC(=O)C(C)NC(=O)C(=C)NC(=O)C(C)NC(=O)C(C(C)CC)NC2C=Cc3c(C(C)O)cc(nc3C2O)C(=O)OC4C)n1)C(N)=O (centres undefined)")
"true (1)"
>>> group("CCN(CC)CCCC(C)N=C(C1=C(C(=NC(C)CCCN(CC)CC)c2cccc(OC)c2)C(=O)NC1=O)c1cccc(OC)c1 (centres undefined)")
"true (1)"
>>> group("CCOC(=O)c1cc(C(=O)c2cc(OC)c(OC)c(OC)c2)n2nc(C)ccc12")
"false (0)"
>>> group("COc1ccc(C(=O)c2ccccc2CN2C(=O)c3ccccc3C2=O)cc1")
"false (0)"
>>> group("CCCCCC(=O)O[C@]1(C(C)=O)CCC2C3CCC4=CC(=O)CC[C@]4(C)C3CC[C@@]21C (some centres undefined)")
"false (0)"
>>> group("CC(CN(C)C)Oc1ccc(OC(C)CN(C)C)c2c1C(=O)c1ccccc1C2=O (centres undefined)")
"false (0)"
>>> group("O=C(Nc1ccc2c(O)cc(S(=O)(=O)O)cc2c1)c1ccc([N+](=O)[O-])cc1")
"false (0)"
>>> group("CC(=O)OC1C=CC(OC(C)=O)O1 (centres undefined)")
"false (0)"
>>> group("CCCN1CN2C(=O)N3CN(CCC)CN4C(=S)N(C1)C2C34 (centres undefined)")
"false (0)"
>>> group("COc1ccc2nc3cc(Cl)ccc3c(N)c2c1")
"true (1)"
>>> group("NC(=O)c1cccc(-n2ccc3cc(NC(=O)Nc4ccc(Cl)c(C(F)(F)F)c4)ccc32)n1")
"false (0)"
>>> group("CN(C)c1ccc(/C=N/NC(=O)c2cccc3ccccc23)c(Cl)c1")
"false (0)"
>>> group("O=C1CSC(=S)N1/N=C/c1ccc(Cl)s1")
"false (0)"
>>> group("Cc1ccc(C2=NN(c3ccc(S(C)(=O)=O)cc3)C(=O)CC2)cc1")
"false (0)"
>>> group("O=[N+]([O-])c1cc(Cl)cc(Cl)c1O")
"false (0)"
>>> group("CCCCN1C(=O)CC(SC2CC(=O)N(CCCC)C2=O)C1=O (centres undefined)")
"false (0)"
>>> group("O=S(=O)(O)c1ccc(Cl)cc1")
"false (0)"
>>> group("N#CC1=CC2CN(Cc3ccccc3)C1C1C(=O)N(c3ccccc3)C(=O)C21 (centres undefined)")
"false (0)"
>>> group("CCN(CC)CCOc1ccc2c(c1O)C(=O)c1ccccc1C2=O")
"false (0)"
>>> group("Brc1ccc2c(c1)-c1ccccc1C1=NCCN12")
"true (1)"
>>> group("CCC(=O)OC1CCC2C3CCC(=O)OC3C(C)(CCC(=O)O)CC12C (centres undefined)")
"true (1)"
>>> group("OC(CCN1CCCC1)(c1ccccc1)C1CCCCC1 (centres undefined)")
"false (0)"
>>> group("CN(C)CCCOc1ccc(NC2=C(Cl)C(=O)C(Nc3ccc(OCCCN(C)C)cc3)=C(Cl)C2=O)cc1")
"true (1)"
>>> group("CCOC(=O)c1cocc1C(=O)O")
"false (0)"
>>> group("CS(=O)(=O)c1nccc(-c2c(-c3cccc(OCc4ccccc4)c3)nc3sccn23)n1")
"false (0)"
>>> group("Cc1ccc(S(=O)(=O)N/N=C2\\CCCc3ccccc32)cc1")
"false (0)"
>>> group("O=c1oc2c(cc1-c1ccc(F)cc1)C(O)Oc1ccccc1-2 (centres undefined)")
"false (0)"
>>> group("O=C(CC(CC(=O)c1ccccc1)c1ccccc1O)c1ccccc1")
"false (0)"
>>> group("COc1ccc(/C=C2\\CCCC3=C2N=C2SC(C)=CN2C3c2ccc(OC)cc2)cc1 (centres undefined)")
"false (0)"
>>> group("COc1cc2cc(Oc3ccc(NC(=O)Nc4ccc(C(F)(F)F)cc4)cc3)c(C)nc2cc1OC")
"false (0)"
>>> group("Cc1ccc(NC(=O)N2CCCCC2)cc1[N+](=O)[O-]")
"true (1)"
>>> group("CC(=O)Nc1ccc(S(=O)(=O)N/N=C(\\C)c2ccc(C)cc2C)cc1")
"false (0)"
>>> group("COc1cc2c(cc1NC(=O)C(F)(F)F)-c1ccc(NC(=O)C(F)(F)F)cc1C2")
"false (0)"
>>> group("CC(=O)O[C@@]12CO[C@@H]1C[C@H](O)[C@@]1(C)C(=O)[C@H](O)C3=C(C)[C@@H](OC(=O)[C@H](O)[C@@H](NC(=O)OC(C)(C)C)c4ccccc4)C[C@@](O)([C@@H](OC(=O)c4ccccc4)C12)C3(C)C (some centres undefined)")
"false (0)"
>>> group("COc1cccc(-c2nc3sccn3c2-c2cccc(S(C)(=O)=O)c2)c1")
"false (0)"
>>> group("C#CC(C)(O)[C@@H]1C[C@H](CC(=O)O)C1(C)C (some centres undefined)")
"false (0)"
>>> group("C=CCNCCN1C(=O)c2ccc3c4c(ccc(c24)C1=O)C(=O)N(CCNCC=C)C3=O")
"true (1)"
>>> group("CN(C)CCCOc1ccccc1NC1=C(Cl)C(=O)C(Nc2ccccc2OCCCN(C)C)=C(Cl)C1=O")
"true (1)"
>>> group("COc1ccc2c(c1)C(=O)/C(=C/c1cccc(OCC(=O)c3ccc([N+](=O)[O-])cc3)c1)CO2")
"true (1)"
